protocol_details: Headspace volatilization of secondary metabolites by GCMS
Type: physicochemical
experimental_parameters: Pesticide fumigant formula of the present invention (0.5 ml in 1 ml GC vial); share of total peak area
Protocol: In this study, a liquid fumigant pesticide formulation was prepared as follows: • (1) Base formula: rosemary oil (5 ml) • (2) Enhancement formula: rosemary oil high quality (0.5 ml); clove oil (0.05 ml); peppermint oil (0.075 ml) • (3) Carrier solvent: isopropyl alcohol (6 ml); isopropyl myristate (0.06 ml). Blending: • 3. […]
% of secondary metabolite in headspace for assorted molecules
reported_metric: % of secondary metabolite in headspace (%)

{"molecule": "CC12CCC(CC1=O)C2(C)C (centres unmarked)", "value_reported": 23.30}
{"molecule": "C=C1CCC2CC1C2(C)C (centres unmarked)", "value_reported": 5.35}
{"molecule": "CC12CCC(CC1)C(C)(C)O2", "value_reported": 46.78}
{"molecule": "C=C1C2CCC(C2)C1(C)C (centres unmarked)", "value_reported": 9.98}
{"molecule": "CC1=CCC2CC1C2(C)C (centres unmarked)", "value_reported": 14.58}
